experiment: Oral bioavailability in CD-1 mouse at 1 mg/kg or 0.5 mg/kg measured upto 24 hrs by LC-MS/MS analysis; assay type: ADME, organism-based; conditions: in vivo
What bioavailability was measured for each of the following?
Expressed in %, but write only the number.

Value lookup for bioavailability; key = C=CC(=O)N(c1ccc(O[C@@H]2CC[C@@H](NC(=O)N[C@@H]3CCS(=O)(=O)C3)C2)c(F)c1)[C@@H](C)c1ccc(Cl)cc1
37

Value lookup for bioavailability; key = C=CC(=O)N(c1ccc(O[C@@H]2CC[C@@H](NC(=O)N[C@@H]3CCS(=O)(=O)C3)C2)c(Cl)c1)[C@@H](C)c1ccc(Cl)cc1
16
